Data origin: ChEMBL document CHEMBL5665443

- TARGET_OR_SYSTEM: Adenine DNA glycosylase (Homo sapiens) (UniProt Q9UIF7);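 further: human MUTYH activity read as 594 nm fluorescence from cleavage and release of a quenched DNA duplex, coupled with APE1 for strand incision, lower signal meaning inhibition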
- Sequence (whole entry): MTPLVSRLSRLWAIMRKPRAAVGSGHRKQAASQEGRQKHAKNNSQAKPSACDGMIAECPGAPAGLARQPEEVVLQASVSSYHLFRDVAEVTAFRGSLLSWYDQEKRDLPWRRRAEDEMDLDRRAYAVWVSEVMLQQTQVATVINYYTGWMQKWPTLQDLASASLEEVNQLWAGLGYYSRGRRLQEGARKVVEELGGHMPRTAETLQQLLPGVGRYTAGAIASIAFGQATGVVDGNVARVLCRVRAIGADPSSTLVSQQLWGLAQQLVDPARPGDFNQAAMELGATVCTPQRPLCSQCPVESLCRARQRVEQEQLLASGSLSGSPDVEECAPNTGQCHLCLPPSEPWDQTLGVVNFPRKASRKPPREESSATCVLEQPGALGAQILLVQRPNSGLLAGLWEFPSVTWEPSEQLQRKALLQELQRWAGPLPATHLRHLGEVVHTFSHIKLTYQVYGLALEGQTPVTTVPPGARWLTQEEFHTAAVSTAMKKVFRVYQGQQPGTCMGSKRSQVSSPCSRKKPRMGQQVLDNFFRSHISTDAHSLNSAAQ
- EXPERIMENTAL_PARAMETERS: Compound Concentration 10.0 uM, Hit No
- Description: Inhibition of MUTYH by quantifying inhibition of MUTYH-mediated cleavage and dissociation of quenched duplex DNA oligonucleotides, measured as fluorescence at 594 nm. To generate a functional strand incision and increase turn-over this assay is coupled to APE1.
Measured inhibition by item

>  <RECORD_SMILES>
C/C(=N\NC(=O)[C@@H]1C(=O)NC[C@H]1c1ccccc1)c1cccc(Br)c1

>  <inhibition (%)>
11

$$$$
>  <RECORD_SMILES>
O=C(Nc1cc(-c2ccccc2)nn1-c1ccccc1F)c1ccc([N+](=O)[O-])cc1

>  <inhibition (%)>
7.68

$$$$
>  <RECORD_SMILES>
CC(C)C[C@@H](NC(=O)[C@H](Cc1ccccc1)NC(=O)CNC(=O)[C@@H](C)NC(=O)[C@@H](N)Cc1ccc(O)cc1)C(=O)O

>  <inhibition (%)>
18.5

$$$$
>  <RECORD_SMILES>
CC(=O)Nc1nc(C)c(S(=O)(=O)Nc2ccc(C(O)(C(F)(F)F)C(F)(F)F)cc2)s1

>  <inhibition (%)>
13.4

$$$$
>  <RECORD_SMILES>
CN(C)CC[C@@H](c1ccc(Cl)cc1)c1ccccn1

>  <inhibition (%)>
11.5

$$$$
>  <RECORD_SMILES>
COc1cc(Br)c(S(=O)(=O)Nc2ccc(C(F)(F)F)c(O[C@@H]3CCN(C)C3)c2)cc1OC

>  <inhibition (%)>
-3.82

$$$$
